Test system: M14 melanoma
Experiment: NCI tumour cell line growth inhibition, 48 h; in the data active means GI50 below about 0.43 µM; inactive means the rest
// allowed return values: true (1) = active, false (0) = inactive

The examples below pair each entry with its known result.
compound	class
Oc1ccc(-c2cn3ccsc3n2)cc1O	false (0)
CC/C=C\C/C=C\C[C@H]1C/C=C2/C(=O)C=C[C@@H]2C/C=C\CCC(=O)O1	false (0)
COc1cc2c(cc1OCCCCCN1CCN(c3cc(=O)oc4ccccc34)CC1)N=C[C@@H]1CCCN1C2=O	true (1)
CC(=O)OC1CCC(OC(C)=O)[C@H]2[C@@H]1[C@@H]1S[C@H]2c2ccccc21 (stereo partly drawn)	false (0)
O=c1[nH]c2ccc(N=Cc3c(O)[nH]c4ccccc34)cc2[nH]1	false (0)

[in] Dear colleague, could you share the recorded outcome for `FC(F)(F)CNc1nccc(-c2cnn3ncccc23)n1` when you have a moment?
[out] false (0)

[in] Dear colleague, could you share the recorded outcome for `CC(=O)Nc1ccc2c(C3=C(c4cn(C)c5ccccc45)C(=O)NC3=O)cn(C)c2c1` when you have a moment?
[out] false (0)

[in] Dear colleague, could you share the recorded outcome for `O=[N+]([O-])c1ccc2scc3c4ccccc4nc-3c2c1` when you have a moment?
[out] false (0)

---

Test system: OVCAR-5 ovarian
Test: NCI tumour cell line growth inhibition, 48 h; in the data active = GI50 below about 0.43 µM; inactive = the rest
// allowed return values: t = active, f = inactive

The examples below pair each entry with its known result.
compound	measured on	class
O=C(CNc1c(Cl)cccc1Cl)Nc1ccc(-c2nc3ccccc3s2)cc1	OVCAR-5 ovarian	f
Cc1cc(I)cc(CN(C)CCN2CCOCC2)c1O	OVCAR-5 ovarian	f

[in] Dear colleague, could you share the recorded outcome for `O=[N+]([O-])c1ccc2scc3c4ccccc4nc-3c2c1` when you have a moment?
[out] f

[in] Dear colleague, could you share the recorded outcome for `CC/C=C\C/C=C\C[C@H]1C/C=C2/C(=O)C=C[C@@H]2C/C=C\CCC(=O)O1` when you have a moment?
[out] f

[in] Dear colleague, could you share the recorded outcome for `[N-]=[N+]=NCCCn1c2c(c3ccccc3c1=O)C(=O)c1cc(Br)ccc1-2` when you have a moment?
[out] f

[in] Dear colleague, could you share the recorded outcome for `Nc1c(C(=O)Nc2ccccn2)sc2nc3c(cc12)CCCCC3` when you have a moment?
[out] f

---

Test system: OVCAR-3 ovarian
Test: NCI tumour cell line growth inhibition, 48 h
For each of the compounds below, state its TGI.

compound	TGI
CC1(C)C(=NN=C(N)N)C(C)(C)C1=NN=C(N)N	> 100 µM
NC(Cc1c[nH]c2ccccc12)P(=O)(O)O (stereo unspecified)	> 100 µM
Clc1ccc(C2=NOC(C3CCCCC3)C2)cc1 (stereo unspecified)	> 100 µM
CCCCCCCC/C=C\CCCCCCC/C=C1/C[C@](/C=C/C(=O)OC)(CO)OC1=O	24 µM
Fc1ccc(-c2nnc3sc(-c4cc(Cl)cc(Cl)c4)nn23)cc1Cl	> 100 µM

Please turn your attention to the following entry.
[in] Query for OVCAR-3 ovarian: what TGI does the record show for `C/C(CC(=O)Nc1ccc(C)c(C)c1)=N\NC(N)=S` ?
[out] > 100 µM

---

Tested on: RXF 393 renal
Test: NCI tumour cell line growth inhibition, 48 h; in the data active = GI50 below about 0.43 µM; inactive = the rest
// allowed return values: T (active), F (inactive)

O=C1Nc2ccccc2C1(c1c[nH]c2ccccc12)c1c[nH]c2ccccc12 F
Cc1cc(I)cc(CN(C)CCN2CCOCC2)c1O F
Cc1cccc(NC2=C(Cl)C(=O)N(Cc3ccc(Cl)cc3)C2=O)c1 F
CCC(=C/[C@H](C)C/C=C/C(C)=C/[C@@H](C)C(=O)[C@@H](C)[C@H](O)[C@@H](C)CC)/C=C/[C@@H]1OC(=O)C=C[C@@H]1C T

Lab note: next compound to report on.
[in] Dear colleague, could you share the recorded outcome for `CCC[CH2][Sn]([CH2]CCC)([O]C(=O)c1ccc(C)c(N)c1)[O]C(=O)c1ccc(C)c(N)c1` when you have a moment?
[out] T
